assay: NCI Yeast Anticancer Drug Screen. Data for the sgs1 mgt1 strain (AID 161);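 further: 0% = growth of cultures given vehicle only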
conditionsUsed: S. cerevisiae sgs1 mgt1 strain, at 50.0 µM, stronger effect = higher value
This is part of a sample that, as a whole, favours compounds with a hit. Of some 79,000 tested, about 15% had one in any assay. The source made the active and inactive calls. No stated cut-off is given here; in the data, active means growth inhibition above about 70%; inactive means the rest.
Measured growth inhibition accompanies every entry in the list below.

smilesData: Cc1cc(C)cc([N+](=O)[O-])c1
growth inhibition: 1.3% (inactive)
//
smilesData: O=[N+]([O-])c1ccc(N/N=C/c2ccccc2O)c([N+](=O)[O-])c1
growth inhibition: 4.8% (inactive)
//
smilesData: O=C(N/N=C/c1cccc(C(F)(F)F)c1)c1ccncc1
growth inhibition: 11.1% (inactive)
//
smilesData: CCCCS(=O)(=O)CCCC
growth inhibition: -10.2% (inactive)
//
smilesData: COc1cc(C(=O)c2cocc2C(=O)c2ccc3c(c2)OCO3)cc(OC)c1OC
growth inhibition: -10.3% (inactive)
//
smilesData: CCOC(CCc1c(C)nc[nH]c1=O)OCC
growth inhibition: -2.35% (inactive)
